pKi: −log10 of the molar value.
What follows is a record of pKi for Alpha-1A adrenergic receptor (Homo sapiens).

Please look at COc1cccc(OC)c1OCCNC[C@@H]1CO[C@H](c2ccccc2)CO1 (relative stereo) and tell me its recorded pKi on Alpha-1A adrenergic receptor (Homo sapiens).
Sequence (P35348 whole entry): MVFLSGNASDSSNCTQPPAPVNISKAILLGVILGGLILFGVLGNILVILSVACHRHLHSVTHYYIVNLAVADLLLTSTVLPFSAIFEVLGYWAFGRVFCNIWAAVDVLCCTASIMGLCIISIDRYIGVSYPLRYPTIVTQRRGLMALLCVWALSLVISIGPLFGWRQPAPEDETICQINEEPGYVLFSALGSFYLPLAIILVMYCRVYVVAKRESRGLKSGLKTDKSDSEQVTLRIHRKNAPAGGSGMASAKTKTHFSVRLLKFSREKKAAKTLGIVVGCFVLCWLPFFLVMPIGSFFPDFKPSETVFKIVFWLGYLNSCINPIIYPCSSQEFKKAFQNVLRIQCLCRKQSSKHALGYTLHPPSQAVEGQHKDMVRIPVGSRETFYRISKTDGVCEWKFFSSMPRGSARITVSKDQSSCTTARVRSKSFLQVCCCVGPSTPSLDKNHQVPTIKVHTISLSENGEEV
< 6.00

Please look at c1ccc(OCCNC[C@@H]2CO[C@H](c3ccccc3)CO2)cc1 (relative stereo) and tell me its recorded pKi on Alpha-1A adrenergic receptor (Homo sapiens).
< 6.00

Please look at COc1cccc(OC)c1OCCNC[C@@H]1COC[C@@H](c2ccccc2)O1 (relative stereo) and tell me its recorded pKi on Alpha-1A adrenergic receptor (Homo sapiens).
< 6.00

###

system: PC-3; experiment: Cytotoxicity against human PC3 cells after 48 hrs by SRB assay; type: functional; settings: PC-3, 48 h
This listing pairs compounds with measured TGI.
Reply with just the number (in µM).

Some entries whose results are on file:
- COMPOUND: "COc1ccccc1OCCNC[C@@H]1COC(c2ccccc2)(c2ccccc2)CO1"
  OUTPUT_UNIT: "µM"
  TGI: 16.1
- COMPOUND: "c1ccc(OCCNC[C@@H]2CO[C@H](c3ccccc3)CO2)cc1 (relative stereo)"
  OUTPUT_UNIT: "µM"
  TGI: 239
- COMPOUND: "COc1cccc(OC)c1OCCNC[C@@H]1COC[C@H](c2ccccc2)O1 (relative stereo)"
  OUTPUT_UNIT: "µM"
  TGI: 178
- COMPOUND: "c1ccc(OCCNC[C@@H]2COC[C@@H](c3ccccc3)O2)cc1 (relative stereo)"
  OUTPUT_UNIT: "µM"
  TGI: 223
- COMPOUND: "COc1ccccc1OCCNC[C@@H]1COC[C@@H](c2ccccc2)O1 (relative stereo)"
  OUTPUT_UNIT: "µM"
  TGI: 251
- COMPOUND: "c1ccc(OCCNC[C@@H]2COC(c3ccccc3)(c3ccccc3)CO2)cc1"
  OUTPUT_UNIT: "µM"
  TGI: 19.4

Would you kindly look at the next entry?
Please look at this compound and report its TGI: COc1cccc(OC)c1OCCNC[C@@H]1COCC(c2ccccc2)(c2ccccc2)O1
31.6

###

Target chain: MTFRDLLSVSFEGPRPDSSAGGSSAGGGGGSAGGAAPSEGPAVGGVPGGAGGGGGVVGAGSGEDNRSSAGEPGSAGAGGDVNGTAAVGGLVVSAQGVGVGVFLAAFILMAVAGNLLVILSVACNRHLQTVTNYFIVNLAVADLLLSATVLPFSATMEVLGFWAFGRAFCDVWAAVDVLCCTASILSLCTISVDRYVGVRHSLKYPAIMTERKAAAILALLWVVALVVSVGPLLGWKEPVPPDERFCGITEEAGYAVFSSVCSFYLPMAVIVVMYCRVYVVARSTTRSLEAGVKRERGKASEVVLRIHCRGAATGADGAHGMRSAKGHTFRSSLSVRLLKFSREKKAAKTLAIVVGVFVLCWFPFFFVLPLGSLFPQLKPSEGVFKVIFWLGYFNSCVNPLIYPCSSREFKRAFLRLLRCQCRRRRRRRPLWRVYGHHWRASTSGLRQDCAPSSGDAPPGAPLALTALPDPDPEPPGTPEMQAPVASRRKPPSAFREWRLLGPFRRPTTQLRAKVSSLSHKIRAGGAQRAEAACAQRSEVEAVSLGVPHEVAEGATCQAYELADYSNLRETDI
ENDPOINT_LABEL: Ki (nM)
Reply with just the number (in nM).

- COMPOUND: "COc1ccccc1OCCNC[C@@H]1COC[C@H](c2ccccc2)O1 (relative stereo)"
  OUTPUT_UNIT: "nM"
  Ki: 43.7
- COMPOUND: "COc1ccccc1OCCNC[C@@H]1COC[C@@H](c2ccccc2)O1 (relative stereo)"
  OUTPUT_UNIT: "nM"
  Ki: 31.6

Would you kindly look at the next entry?
Please look at this compound and report its Ki: COc1ccccc1OCCNC[C@@H]1CO[C@H](c2ccccc2)CO1 (relative stereo)
16.2

###

molecular target: Alpha-1D adrenergic receptor (Rattus norvegicus); experiment: Antagonist activity at Alpha-1D adrenoceptor in Wistar rat thoracic aorta assessed as inhibition of (-)-noradrenaline-induced contraction after 30 mins; type: functional, tissue-based
This listing pairs compounds with measured pKb.
Just the number.

Some entries whose results are on file:
- COMPOUND: "COc1ccccc1OCCNC[C@@H]1COCC(c2ccccc2)(c2ccccc2)O1"
  ENDPOINT_LABEL: "pKb"
  NUMERIC_READOUT: 8.32
- COMPOUND: "c1ccc(OCCNC[C@@H]2COC[C@@H](c3ccccc3)O2)cc1 (relative stereo)"
  ENDPOINT_LABEL: "pKb"
  NUMERIC_READOUT: 6.38
- COMPOUND: "COc1cccc(OC)c1OCCNC[C@@H]1CO[C@@H](c2ccccc2)CO1 (relative stereo)"
  ENDPOINT_LABEL: "pKb"
  NUMERIC_READOUT: 7.26

Please look at c1ccc(OCCNC[C@@H]2CO[C@H](c3ccccc3)CO2)cc1 (relative stereo) and tell me its recorded pKb on Alpha-1D adrenergic receptor (Rattus norvegicus).
7.05

Please look at COc1ccccc1OCCNC[C@@H]1COC[C@H](c2ccccc2)O1 (relative stereo) and tell me its recorded pKb on Alpha-1D adrenergic receptor (Rattus norvegicus).
7.2

Please look at COc1cccc(OC)c1OCCNC[C@@H]1COC[C@@H](c2ccccc2)O1 (relative stereo) and tell me its recorded pKb on Alpha-1D adrenergic receptor (Rattus norvegicus).
7.11

Please look at COc1ccccc1OCCNC[C@@H]1CO[C@@H](c2ccccc2)CO1 (relative stereo) and tell me its recorded pKb on Alpha-1D adrenergic receptor (Rattus norvegicus).
7.48

Please look at c1ccc(OCCNC[C@@H]2COC(c3ccccc3)(c3ccccc3)CO2)cc1 and tell me its recorded pKb on Alpha-1D adrenergic receptor (Rattus norvegicus).
7.19

Please look at COc1cccc(OC)c1OCCNC[C@@H]1COCC(c2ccccc2)(c2ccccc2)O1 and tell me its recorded pKb on Alpha-1D adrenergic receptor (Rattus norvegicus).
7.22

Please look at c1ccc(OCCNC[C@@H]2CO[C@@H](c3ccccc3)CO2)cc1 (relative stereo) and tell me its recorded pKb on Alpha-1D adrenergic receptor (Rattus norvegicus).
6.56

Please look at c1ccc(OCCNC[C@@H]2COCC(c3ccccc3)(c3ccccc3)O2)cc1 and tell me its recorded pKb on Alpha-1D adrenergic receptor (Rattus norvegicus).
7.6

Please look at c1ccc(OCCNC[C@@H]2COC[C@H](c3ccccc3)O2)cc1 (relative stereo) and tell me its recorded pKb on Alpha-1D adrenergic receptor (Rattus norvegicus).
6.77

Please look at COc1ccccc1OCCNC[C@@H]1CO[C@H](c2ccccc2)CO1 (relative stereo) and tell me its recorded pKb on Alpha-1D adrenergic receptor (Rattus norvegicus).
6.84

Please look at COc1cccc(OC)c1OCCNCC1COc2ccccc2O1 (stereo not given) and tell me its recorded pKb on Alpha-1D adrenergic receptor (Rattus norvegicus).
8.8

Please look at COc1cccc(OC)c1OCCNC[C@@H]1COC(c2ccccc2)(c2ccccc2)CO1 and tell me its recorded pKb on Alpha-1D adrenergic receptor (Rattus norvegicus).
7.38

###

What follows is a record of Ki for Alpha-1D adrenergic receptor (Homo sapiens, UniProt P25100).

Please look at this compound and report its Ki: COc1cccc(OC)c1OCCNC[C@@H]1COC[C@H](c2ccccc2)O1 (relative stereo)
> 1000 nM

Please look at this compound and report its Ki: c1ccc(OCCNC[C@@H]2CO[C@@H](c3ccccc3)CO2)cc1 (relative stereo)
> 1000 nM

Please look at this compound and report its Ki: COc1cccc(OC)c1OCCNC[C@@H]1CO[C@H](c2ccccc2)CO1 (relative stereo)
> 1000 nM

Please look at this compound and report its Ki: COc1cccc(OC)c1OCCNC[C@@H]1COC[C@@H](c2ccccc2)O1 (relative stereo)
> 1000 nM

Please look at this compound and report its Ki: COc1cccc(OC)c1OCCNC[C@@H]1COCC(c2ccccc2)(c2ccccc2)O1
66.1 nM

Please look at this compound and report its Ki: COc1ccccc1OCCNC[C@@H]1COC(c2ccccc2)(c2ccccc2)CO1
102 nM

Please look at this compound and report its Ki: c1ccc(OCCNC[C@@H]2COC(c3ccccc3)(c3ccccc3)CO2)cc1
126 nM
